# Run description: in vitro
# Experimental conditions: human, plasma, pH 7.4, plasma protein binding, 1 and 10 μM
Endpoint label: fraction unbound at 4 h

Q: # lookup: fraction unbound at 4 h of `Cc1ccnc(Nc2nc(-c3ccc(-c4ccccn4)s3)cs2)c1`
Result: 0.04 to 0.07

----------
# Test system: PrP^Sc in nondividing ScN2a-cl3 cells
# Assay type: cell-based, mouse
# Experimental conditions: read-out: EC50, PrP^Sc ELISA in stationary-phase (nondividing) cells
Endpoint label: EC50 (µM)
Please give a number only; it is taken to be in µM.

Q: # lookup: EC50 of Cc1ccc2[nH]c3c(c2c1)CCCC3NCCCN(C)C (stereo not shown) [IND-23308]
Result: 7.5

----------
I'd appreciate it if you could supply Inhibition of Baseline PrP^5c (%) Dividing Cells ELISA values for the items below.
# System: PrP^Sc in dividing ScN2a-cl3 cells
# Assay type: cell-based, mouse
# Experimental conditions: SPC assay, dividing cells
Please give a number only; it is taken to be in %.

Q: # lookup: Inhibition of Baseline PrP^5c (%) Dividing Cells ELISA of CC(=O)c1ccc(N2CCN(Cc3ccc(Br)s3)CC2)cc1 [IND-7190]
Result: 97

Q: # lookup: Inhibition of Baseline PrP^5c (%) Dividing Cells ELISA of Clc1ccc(N2CCN(C3CCSC3)CC2)cc1 (centres unmarked) [IND-19847]
Result: 42

Q: # lookup: Inhibition of Baseline PrP^5c (%) Dividing Cells ELISA of O=C(Nc1ccc(Cl)cc1)Nc1ccc(Cl)c(F)c1 [IND-19237]
Result: 25

Q: # lookup: Inhibition of Baseline PrP^5c (%) Dividing Cells ELISA of O=C(Nc1ccc(Cl)c(Cl)c1)NC(CC(=O)c1ccc([N+](=O)[O-])cc1)C(Cl)(Cl)Cl (centres unmarked) [IND-10851]
Result: 83

Q: # lookup: Inhibition of Baseline PrP^5c (%) Dividing Cells ELISA of CC(=O)c1ccc(N2CCN(Cc3ccc(F)cc3F)CC2)cc1 [IND-18785]
Result: 85

Q: # lookup: Inhibition of Baseline PrP^5c (%) Dividing Cells ELISA of CNCCc1c(-c2ccccc2)n(-c2ccccc2)c2ccccc12 [IND-10094]
Result: 81

Q: # lookup: Inhibition of Baseline PrP^5c (%) Dividing Cells ELISA of CC(=O)c1ccc(N2CCN(Cc3cccc(Br)c3)CC2)cc1 [IND-7046]
Result: 67

Q: # lookup: Inhibition of Baseline PrP^5c (%) Dividing Cells ELISA of O=C(Nc1ccccc1)Nc1ccc(F)c(Cl)c1 [IND-8314]
Result: 87

----------
I'd appreciate it if you could supply log10 of half-life at 1 μM values for the items below.
# Run description: Hepatic microsomal stability, mouse
# Experimental conditions: CD-1, mouse, liver microsomes, pH 7.4
In our notation, the value equals log10 of half-life at 1 μM in min.

Q: # lookup: log10 of half-life at 1 μM of `COc1ccc(-c2csc(Nc3ccc4ccccc4n3)n2)cc1OC`
Result: 1.86

Q: # lookup: log10 of half-life at 1 μM of `COc1ccc(-c2csc(Nc3cc4ccccc4cn3)n2)cc1OC`
Result: 1.88

Q: # lookup: log10 of half-life at 1 μM of `Cc1ccnc(Nc2nc(-c3ccncc3)cs2)c1`
Result: 0.78

Q: # lookup: log10 of half-life at 1 μM of `COc1ccc(Nc2nc(-c3ccc(OC)c(OC)c3)cs2)nc1`
Result: 1.46

Q: # lookup: log10 of half-life at 1 μM of `Cc1ccc(Nc2nc(-c3cc(-c4ccccc4)no3)cs2)nc1`
Result: 2.00

Q: # lookup: log10 of half-life at 1 μM of `Cc1cccc(Nc2nc(-c3cc4ccccc4o3)cs2)n1`
Result: 1.69

Q: # lookup: log10 of half-life at 1 μM of `Cc1ccnc(Nc2nc(-c3ccc(-c4ccccn4)s3)cs2)c1`
Result: 1.28

Q: # lookup: log10 of half-life at 1 μM of `c1ccc2cc(Nc3nc(-c4ccncc4)cs3)ncc2c1`
Result: 1.18

----------
# Run description: Hepatic microsomal stability, human
# Experimental conditions: human, human liver microsomes, pH 7.4
I'd appreciate it if you could supply half-life at 1 μM values for the items below.
Please give a number only; it is taken to be in min.

Q: # lookup: half-life at 1 μM of O=C(Cc1ccc(-c2ccccc2)cc1)NCc1ccccc1 [IND116065]
Result: 11.1

Q: # lookup: half-life at 1 μM of COc1ccc(Nc2nc(-c3ccc(OC)c(OC)c3)cs2)nc1 [IND44]
Result: 58

Q: # lookup: half-life at 1 μM of COc1cccc(N2CCN(C(=O)c3cc(C)ccc3OC)CC2)c1 [IND126339]
Result: 10.3

Q: # lookup: half-life at 1 μM of Cc1c(C(=O)OC(C)C)[nH]c2c1C(=O)CC(c1cccs1)C2 (stereo not drawn) [IND116088]
Result: 23.9

Q: # lookup: half-life at 1 μM of COc1ccc(S(=O)(=O)N2CCOc3ccccc32)cc1 [IND116071]
Result: 4.53

Q: # lookup: half-life at 1 μM of c1ccc2cc(Nc3nc(-c4ccncc4)cs3)ncc2c1 [IND85]
Result: 53

Q: # lookup: half-life at 1 μM of NC(=O)c1ccccc1NC(=O)c1cccnc1N1CCCCC1 [IND87406]
Result: 37.1

Q: # lookup: half-life at 1 μM of CCOc1ccc(Nc2nc(-c3c(C)nc4sccn34)cs2)cc1 [IND126328]
Result: 21.9

Q: # lookup: half-life at 1 μM of CCOc1ccccc1C1C(C#N)=C(N)Oc2cc(N(C)C)ccc21 (stereo not drawn) [IND8541]
Result: 20.3

----------
I'd appreciate it if you could supply concentration at 3 days values for the items below.
# Run description: Multidose (three-day) pharmacokinetics in liquid diet in FVB mice
# Experimental conditions: FVB, mouse, in vivo, 40 mg/kg, Plasma Concentration (Css), three-day dosing in liquid diet, plasma
Please give a number only; it is taken to be in nM.

Q: # lookup: concentration at 3 days of `Cc1cccc(Nc2nc(-c3cc4ccccc4o3)cs2)n1`
Result: 1490

Q: # lookup: concentration at 3 days of `Cc1ccnc(Nc2nc(-c3ccncc3)cs2)c1`
Result: 10

Q: # lookup: concentration at 3 days of `COc1ccc(-c2csc(Nc3cc4ccccc4cn3)n2)cc1OC`
Result: 50

Q: # lookup: concentration at 3 days of `Cc1ccc(Nc2nc(-c3cc(-c4ccccc4)no3)cs2)nc1`
Result: 650

Q: # lookup: concentration at 3 days of `COc1ccc(-c2csc(Nc3ccc4ccccc4n3)n2)cc1OC`
Result: 130

Q: # lookup: concentration at 3 days of `Cc1cccc(Nc2nc(-c3ccc(-c4ccccc4)cc3)cs2)n1`
Result: 8190

Q: # lookup: concentration at 3 days of `c1ccc2cc(Nc3nc(-c4cc5ccccc5o4)cs3)ncc2c1`
Result: 260

----------
# System: MDCK-MDR1 cells
# Run description: Permeability in MDCK-MDR1 cells
# Experimental conditions: MDR1-MDCK cell monolayers, basal to apical
Endpoint label: Permeability PB→A

Q: # lookup: Permeability PB→A of `Cc1ccc(Nc2nc(-c3cc(-c4ccccc4)no3)cs2)nc1`
Result: 8.3 10^−6 cm/sec

Q: # lookup: Permeability PB→A of `Cc1ccc(Nc2nc(-c3ccncc3)cs2)nc1`
Result: 42.3 10^−6 cm/sec

Q: # lookup: Permeability PB→A of `Cc1ccc(Nc2nc(-c3c(-c4ccccc4)noc3C)cs2)nc1`
Result: 8.6 10^−6 cm/sec

Q: # lookup: Permeability PB→A of `COc1ccc(-c2csc(Nc3ccc4ccccc4n3)n2)cc1OC`
Result: 8.9 10^−6 cm/sec

Q: # lookup: Permeability PB→A of `COc1ccc(-c2csc(Nc3ccc(C(F)(F)F)cn3)n2)cc1OC`
Result: 8.7 10^−6 cm/sec

----------
# Run description: Single-dose pharmacokinetics in FVB mice (oral gavage, IV)
# Experimental conditions: female, FVB, mouse, plasma, po, 40 mg/kg
Endpoint label: bioavailability (%)
Please give a number only; it is taken to be in %.

Q: # lookup: bioavailability of Cc1cccc(Nc2nc(-c3ccc(-c4ccccc4)cc3)cs2)n1 [IND24]
Result: 40.2

Q: # lookup: bioavailability of Cc1ccnc(Nc2nc(-c3ccc(-c4ccccn4)s3)cs2)c1 [IND81]
Result: 27.2

----------
# Run description: Single-dose pharmacokinetics in FVB mice (oral gavage, IV)
# Experimental conditions: female, FVB, mouse, plasma, po, 40 mg/kg
Endpoint label: Tmax (min)
Please give a number only; it is taken to be in min.

Q: # lookup: Tmax of C(=N\Nc1ccc(-c2cnco2)cc1)/c1ccncc1 [IND54304, reference compound]
Result: 30

Q: # lookup: Tmax of Cc1cccc(Nc2nc(-c3ccc(-c4ccccc4)cc3)cs2)n1 [IND24]
Result: 120

Q: # lookup: Tmax of Cc1ccnc(Nc2nc(-c3ccc(-c4ccccn4)s3)cs2)c1 [IND81]
Result: 30
